Below: a set of entries, each annotated with reported melting point.

{"chemical.string": "CCCCOC(=O)NCCc1nc(-c2ccc(-c3cccc([N+](=O)[O-])c3)cc2)c[nH]1", "melting point": "100.5 to 101.5 °C"}
{"chemical.string": "CC(C)COC(=O)NCCc1nc(-c2ccc(-c3ccc(Br)cc3)cc2)c[nH]1", "melting point": "158.7 °C"}
{"chemical.string": "CCCCOC(=O)N[C@H](C)c1nc(-c2ccc(-c3ccccc3)cc2)c[nH]1", "melting point": "114 to 116 °C"}
{"chemical.string": "c1ccc(CC[C@@H](NCc2ccccc2)c2nc(-c3ccc(-c4ccccc4)cc3)c[nH]2)cc1", "melting point": "210 to 213 °C"}

###

Below: a set of entries, each annotated with reported melting point.
Counter-ions that a name gives are not always drawn.

{"compound": "CCCCCCC(NCCCCC)c1nc(-c2ccccc2)c[nH]1 (racemic)", "melting point": "118 to 120 °C"}
{"compound": "CC(C)(C)OC(=O)NCc1nc(-c2ccc(-c3ccccc3)cc2)c[nH]1", "melting point": "100 to 102 °C"}
{"compound": "CCCCCCNCCc1nc(-c2ccc(-c3ccccc3)cc2)c[nH]1", "melting point": "152 to 154 °C"}
{"compound": "CCCCOC(=O)NCCc1nc(-c2ccc(-c3ccccc3)cc2)c(CC)[nH]1", "melting point": "127 to 128 °C"}
{"compound": "CC(C)(C)OC(=O)N[C@H](Cc1c[nH]c2ccccc12)c1nc(-c2ccc([N+](=O)[O-])cc2)c[nH]1", "melting point": "220 to 222 °C"}
{"compound": "CCCCOC(=O)NCCc1nc(-c2cc(C(C)(C)C)c(O)c(C(C)(C)C)c2)c[nH]1", "melting point": "180.9 °C"}
{"compound": "FC(F)(F)Oc1ccc(-c2c[nH]c([C@@H](NC3CCC3)C3CCCCC3)n2)cc1", "melting point": "136 to 140 °C"}
{"compound": "CC(C)[C@@H](NC1CCCCC1)c1nc(-c2ccc(F)cc2)c[nH]1", "melting point": "224 to 226 °C"}
{"compound": "CC(C)(C)OC(=O)N[C@H](CCc1ccccc1)c1nc(-c2ccccc2)c[nH]1", "melting point": "72 to 74 °C"}
{"compound": "CCCCOC(=O)NCCc1nc(-c2ccc(-c3ccc(SC)cc3)cc2)c[nH]1", "melting point": "167.9 °C"}
{"compound": "O=C(NCCc1nc(-c2ccc(-c3ccccc3)cc2)c[nH]1)OCC1CCCCC1", "melting point": "132 to 134 °C"}
{"compound": "c1ccc(CN[C@H](Cc2c[nH]c3ccccc23)c2nc(-c3ccccc3)c[nH]2)cc1", "melting point": "100 to 102 °C"}
{"compound": "Cn1cc(-c2ccc(-c3ccccc3)cc2)nc1CNC(=O)OC(C)(C)C", "melting point": "208 to 210 °C"}
{"compound": "FC(F)(F)c1ccc(-c2c[nH]c([C@@H](NC3CCCCC3)C3CCCCC3)n2)cc1 (as salt: hydrochloride)", "melting point": "214.1 °C"}
{"compound": "c1ccc(CNC2(c3nc(-c4ccccc4)c[nH]3)CCCCC2)cc1", "melting point": "114 to 116 °C"}
{"compound": "c1ccc(CN(Cc2ccccc2)Cc2nc(-c3ccc(-c4ccccc4)cc3)c[nH]2)cc1", "melting point": "70 to 74 °C"}
{"compound": "Brc1cccc(-c2c[nH]c(CNC3CCCCC3)n2)c1", "melting point": "202 to 204 °C"}

###

Structures can show the parent of a compound that is named as a salt.
Below: a set of entries, each annotated with reported melting point.
experimental.endpoint: melting point

{"compound": "CCCCOC(=O)NCCc1nc(-c2ccc(-c3ccccc3F)cc2)c[nH]1", "experimental.endpoint": "melting point", "result": "113.8 °C"}
{"compound": "COc1ccc(-c2c[nH]c(CCNC(=O)OCCC(C)(C)C)n2)cc1", "experimental.endpoint": "melting point", "result": "116.8 °C"}
{"compound": "CC(C)C[C@H](N)c1nc(-c2ccccc2)c[nH]1 (as salt: hydrochloride)", "experimental.endpoint": "melting point", "result": "150 to 152 °C"}
{"compound": "O=C(NCCc1nc(-c2ccc(-c3ccc(Br)cc3)cc2)c[nH]1)OCCCC(F)(F)F", "experimental.endpoint": "melting point", "result": "176.5 °C"}
{"compound": "CCCCOC(=O)NCCc1nc(-c2ccc(-c3ccccc3)cc2)c(C)[nH]1", "experimental.endpoint": "melting point", "result": "143 to 144 °C"}
{"compound": "N[C@H](CCc1ccccc1)c1nc(-c2ccccc2)c[nH]1 (as salt: hydrochloride)", "experimental.endpoint": "melting point", "result": "174 to 176 °C"}
{"compound": "CCCCCCC(NC1CCC1)c1nc(-c2ccccc2)c[nH]1 (racemic)", "experimental.endpoint": "melting point", "result": "148 to 150 °C"}
{"compound": "CC(C)CCCC(N)c1nc(-c2cccc(Br)c2)c[nH]1 (racemic) (as salt: hydrochloride)", "experimental.endpoint": "melting point", "result": "200 to 202 °C"}

###

Where a name gives a salt, the structure may show the parent alone.
Below: a set of entries, each annotated with reported melting point.

{"compound": "CCCCCCOC(=O)NCCc1nc(-c2cc(C(C)(C)C)c(O)c(C(C)(C)C)c2)c[nH]1", "measurement.units": "°C", "relation.sign": "=", "melting point": 197.4}
{"compound": "CC(C)Cc1ccc(-c2c[nH]c(CCNC(=O)OCc3ccccc3)n2)cc1", "measurement.units": "°C", "relation.sign": "=", "melting point": 125.2}
{"compound": "N[C@H](Cc1c[nH]c2ccccc12)c1nc(-c2ccccc2)c(-c2ccccc2)[nH]1 (as salt: hydrochloride)", "measurement.units": "°C", "relation.sign": ">", "melting point": 260}
{"compound": "CCCCOC(=O)NCCc1nc(-c2ccc(-c3ccc(F)c(Cl)c3)cc2)c[nH]1", "measurement.units": "°C", "relation.sign": "=", "melting point": 132.4}
{"compound": "CC(C)CCCOC(=O)NCCc1nc(-c2ccc(-c3ccccc3)cc2)c[nH]1", "measurement.units": "°C", "relation.sign": "=", "melting point": 128.3}
{"compound": "CC(C)(C)c1cc(-c2c[nH]c(CCNC(=O)OCC3CCCCC3)n2)cc(C(C)(C)C)c1O (as salt: hydrochloride)", "measurement.units": "°C", "relation.sign": "=", "melting point": 111.5}
{"compound": "CCCCOC(=O)NCCc1nc(-c2ccc(-c3ccc(Br)cc3)cc2)c[nH]1", "measurement.units": "°C", "relation.sign": "=", "melting point": 166}
{"compound": "CCC[C@@H](N)c1nc(-c2ccc(-c3ccccc3)cc2)c[nH]1 (as salt: hydrochloride)", "measurement.units": "°C", "relation.sign": "=", "melting point": 155.4}
{"compound": "CC[C@H](N)c1nc(-c2ccc(-c3ccccc3)cc2)c[nH]1 (as salt: hydrochloride)", "measurement.units": "°C", "relation.sign": ">", "melting point": 250}

###

Below: a set of entries, each annotated with reported melting point.
Structures can show the parent of a compound that is named as a salt.

{"compound": "CC(C)CCCC(NC1CCCCC1)c1nc(-c2cccc(Br)c2)c[nH]1 (racemic) (as salt: hydrochloride) [Example 272]", "melting point": "216.7 °C"}
{"compound": "Fc1ccc(-c2c[nH]c([C@@H](NC3CCCCC3)C3CCCCC3)n2)cc1 [Example 283]", "melting point": "260 to 262 °C"}
{"compound": "CC(C)(C)OC(=O)N[C@H](Cc1c[nH]c2ccccc12)c1nc(C(C)(C)C)c[nH]1", "melting point": "104 to 106 °C"}
{"compound": "CN(Cc1ccccc1)Cc1nc(-c2cc(C(C)(C)C)c(O)c(C(C)(C)C)c2)cs1", "melting point": "165 to 170 °C"}

###

Below: a set of entries, each annotated with reported melting point.
Counter-ions that a name gives are not always drawn.

{"compound": "CCCCCCC(NCc1ccccc1)c1nc(-c2ccc(N(CC)CC)cc2)c[nH]1 (racemic) (as salt: hydrochloride)", "melting point": "170 °C"}
{"compound": "Fc1ccc(-c2c[nH]c([C@@H](NC3CCC3)C3CCCCC3)n2)cc1", "melting point": "170 to 172 °C"}
{"compound": "CCCCCCOC(=O)NCCc1nc(-c2ccc(N3CCCC3)cc2)c[nH]1", "melting point": "110 to 114 °C"}
{"compound": "CC(C)(C)OC(=O)NCc1nc(-c2ccccc2)cn1Cc1ccccc1", "melting point": "140 to 142 °C"}
{"compound": "O=C(NCCc1nc(-c2ccc(-c3ccccc3)cc2)c[nH]1)OC1CCCC1", "melting point": "140.5 °C"}
{"compound": "O=C(NCCc1nc(-c2ccc(-c3ccccc3)cc2)c[nH]1)OC1CCCCC1", "melting point": "150 °C"}
{"compound": "CC(C)N[C@H](c1nc(-c2ccc(F)cc2)c[nH]1)C1CCCCC1", "melting point": "210 to 212 °C"}
{"compound": "COC(=O)NCCc1nc(-c2ccc(-c3ccccc3)cc2)c[nH]1", "melting point": "177.2 °C"}
{"compound": "NCc1nc(-c2ccccc2)c[nH]1 (as salt: hydrochloride)", "melting point": "228 to 230 °C"}
{"compound": "CC(C)CCCC(NCc1ccccc1)c1nc(-c2cccc(Br)c2)c[nH]1 (racemic)", "melting point": "92 to 94 °C"}
{"compound": "CC(C)(C)c1cc(-c2c[nH]c(CCNC(=O)OCc3ccccc3)n2)cc(C(C)(C)C)c1O", "melting point": "177.5 °C"}
{"compound": "CC(C)C[C@@H](NC(=O)OC(C)(C)C)c1nc(-c2ccccc2)c[nH]1", "melting point": "88 to 90 °C"}
{"compound": "NCCCCCCc1nc(-c2ccccc2)c[nH]1 (as salt: hydrochloride)", "melting point": "244 to 246 °C"}
{"compound": "CC(C)(C)OC(=O)N[C@H](CCc1ccccc1)c1nc(-c2ccc(-c3ccccc3)cc2)c[nH]1", "melting point": "154 to 156 °C"}
{"compound": "COCCOC(=O)NCCc1nc(-c2ccc(-c3ccccc3)cc2)c[nH]1", "melting point": "123.3 °C"}
{"compound": "Fc1cccc(-c2c[nH]c([C@@H](NCC3CCCCC3)C3CCCCC3)n2)c1 (as salt: hydrochloride)", "melting point": "180 to 186 °C"}
